Let's look at some binders and their measured kon.
# STUDY SYSTEM: feline FcRn (FCN-F82W3, Acrobiosystems) (feline)
# TEST: SPR Carterra, IgG coupled, pH 6.0
Please state the figure in M⁻¹ s⁻¹; there is no need to write the unit.

# example entries with known answers
1. anti-NGF feline IgG1a, Fc variant S428L (antibody, part only; not given: Anti-NGF variable domains, not shown: another chain or arm of the molecule; small tags and cut ends) Fc: PPEMLGGPSIFIFPPKPKDTLSISRTPEVTCLVVDLGPDDSDVQITWFVDNTQVYTAKTSPREEQFNSTYRVVSVLPILHQDWLKGKEFKCKVNSKSLPSPIERTISKAKGQPHEPQVYVLPPAQEELSRNKVSVTCLIKSFHPPDIAVEWEITGQPEPENNYRTTPPQLDSDGTYFVYSKLSVDRSHWQRGNTYTCSVLHEALHSHHTQKSLTQSPGK: 1.45e+06
2. anti-NGF feline IgG1a, Fc variant S426L, T289H (antibody, part only; not given: Anti-NGF variable domains, not shown: another chain or arm of the molecule; small tags and cut ends) Fc: PPEMLGGPSIFIFPPKPKDTLSISRTPEVTCLVVDLGPDDSDVQITWFVDNTQVYTAKHSPREEQFNSTYRVVSVLPILHQDWLKGKEFKCKVNSKSLPSPIERTISKAKGQPHEPQVYVLPPAQEELSRNKVSVTCLIKSFHPPDIAVEWEITGQPEPENNYRTTPPQLDSDGTYFVYSKLSVDRSHWQRGNTYTCLVSHEALHSHHTQKSLTQSPGK: 542000

Then there is this binder:
Input line: Recorded kon for anti-NGF feline IgG1a, Fc variant N389c-R (antibody, part only; not given: anti-NGF variable domains, not shown: another chain or arm of the molecule; small tags and cut ends) Fc: PPEMLGGPSIFIFPPKPKDTLSISRTPEVTCLVVDLGPDDSDVQITWFVDNTQVYTAKTSPREEQFNSTYRVVSVLPILHQDWLKGKEFKCKVNSKSLPSPIERTISKAKGQPHEPQVYVLPPAQEELSRNKVSVTCLIKSFHPPDIAVEWEITGQPEPERNYRTTPPQLDSDGTYFVYSKLSVDRSHWQRGNTYTCSVSHEALHSHHTQKSLTQSPGK , please?
Output line: 502000

From: patent US20250304650A1
